Recorded pIC50 for the following molecules
Target: UniProtKB P12931
Sequence (P12931 whole entry, looked up): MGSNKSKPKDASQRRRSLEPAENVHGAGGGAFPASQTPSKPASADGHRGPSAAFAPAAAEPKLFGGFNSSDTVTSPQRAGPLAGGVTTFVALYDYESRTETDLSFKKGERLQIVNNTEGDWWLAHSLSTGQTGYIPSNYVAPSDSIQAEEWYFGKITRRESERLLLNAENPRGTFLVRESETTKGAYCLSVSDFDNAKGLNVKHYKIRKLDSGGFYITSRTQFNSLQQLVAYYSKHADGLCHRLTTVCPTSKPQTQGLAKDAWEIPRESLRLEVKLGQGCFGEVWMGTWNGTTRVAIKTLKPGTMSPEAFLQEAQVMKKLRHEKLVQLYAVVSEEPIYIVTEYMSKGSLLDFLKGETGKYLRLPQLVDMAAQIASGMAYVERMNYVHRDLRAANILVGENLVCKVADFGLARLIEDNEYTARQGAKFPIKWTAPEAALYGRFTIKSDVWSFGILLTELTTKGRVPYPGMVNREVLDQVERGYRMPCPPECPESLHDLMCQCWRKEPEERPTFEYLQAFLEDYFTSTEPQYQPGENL
pIC50: −log10 of the molar value.

Examples with answers:
{"Compound": "Cc1cccc(Sc2nn(C(C)(C)C)c3ncnc(N)c23)c1", "pIC50": "< 5.00"}
{"Compound": "Nc1ncnc2c1c(Cc1c[nH]c3ccccc13)nn2CC1CCNCC1", "pIC50": "< 5.00"}
{"Compound": "CC(C)(C)n1nc(Cc2csc3ccccc23)c2c(N)ncnc21", "pIC50": 7.85}
{"Compound": "CC(C)(C)n1nc(Sc2c[nH]c3ccccc23)c2c(N)ncnc21", "pIC50": "< 5.00"}
{"Compound": "CC(C)(C)n1nc(Cc2c[nH]c3ccccc23)c2c(N)ncnc21", "pIC50": "< 5.00"}

Input line: Checklist item: pIC50 tested on UniProtKB P12931, entry Nc1ncnc2c1c(Cc1c[nH]c3ccccc13)nn2CC1(C(F)(F)F)CC1 , value?
Output line: < 5.00

====

Reported values of Src % Inhibition for individual entries
Biological target: UniProt P12931
Assay: Src kinase inhibition
Assay type: biochemical
Parameters: concentration or dose not given beside the values
Numbers only here, please. The scale is %.

Worked cases, Src % Inhibition given:
{"Compound": "CC(C)(C)n1nc(Cc2cc(F)cc(F)c2)c2c(N)ncnc21 [CZ75]", "Subject Of Test": "UniProt P12931", "Unit Info": "%", "Numeric Value": 91.31}
{"Compound": "CC(C)(C)n1nc(Oc2cc(F)cc(F)c2)c2c(N)ncnc21 [GXJ229]", "Subject Of Test": "UniProt P12931", "Unit Info": "%", "Numeric Value": 87.48}
{"Compound": "Nc1ncnc2c1c(Oc1cccc(Cl)c1)nn2CC1CCNCC1 [GXJ237]", "Subject Of Test": "UniProt P12931", "Unit Info": "%", "Numeric Value": 87.87}

# context switch: different compound, same Src % Inhibition
Input line: Any idea what Src % Inhibition was measured for Nc1ncnc2c1c(Oc1cccc(Cl)c1)nn2CC1(C(F)(F)F)CC1 [FUR7-2] ?
Output line: 91.63
